# measurementDescription: Volume of distribution at steady state in dog at 0.1 mg/kg, iv or 1 mg/kg, po
# Type: ADME, organism-based, Canis lupus familiaris
# protocolConditions: in vivo, read-out: Vdss
resultType: Vd (L/kg)
Respond numerically; units are L/kg and should not be typed.

Recorded Vd of `NS(=O)(=O)c1cncc(-c2nc(NCc3ccccn3)c3c(-c4ccccc4)cccc3n2)c1` , please.
0.2

----------
# testedTarget: Potassium voltage-gated channel subfamily A member 5 (Homo sapiens, UniProt P22460)
# Sequence (P22460 whole entry): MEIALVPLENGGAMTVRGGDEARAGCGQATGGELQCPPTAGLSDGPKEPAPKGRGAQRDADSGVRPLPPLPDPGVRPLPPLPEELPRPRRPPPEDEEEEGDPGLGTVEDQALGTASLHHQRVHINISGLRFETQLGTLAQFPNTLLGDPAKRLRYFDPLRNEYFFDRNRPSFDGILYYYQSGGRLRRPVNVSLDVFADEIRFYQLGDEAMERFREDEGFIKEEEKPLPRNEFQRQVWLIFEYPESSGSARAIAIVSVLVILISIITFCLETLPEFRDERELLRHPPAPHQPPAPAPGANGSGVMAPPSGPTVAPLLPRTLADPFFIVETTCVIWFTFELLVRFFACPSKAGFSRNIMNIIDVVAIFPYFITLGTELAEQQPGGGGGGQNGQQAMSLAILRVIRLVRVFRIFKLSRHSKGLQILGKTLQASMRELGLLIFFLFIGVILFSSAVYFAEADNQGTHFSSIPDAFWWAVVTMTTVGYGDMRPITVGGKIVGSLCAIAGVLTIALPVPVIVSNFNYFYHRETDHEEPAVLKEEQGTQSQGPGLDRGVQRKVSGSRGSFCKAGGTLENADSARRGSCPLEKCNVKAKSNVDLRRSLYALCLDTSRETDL
# protocolConditions: at 0.3 µM
# Description: Inhibition of recombinant human Kv1.5 expressed in mouse L929 cells at 0.3 uM by patch clamp assay relative to control
Class key for inhibition values: low group = under 60%, middle group = from 60% up to 90%, high group = 90% and over

Some solved cases for reference:
{"columns": ["structureString", "testedTarget", "class"],
 "data": [
  ["NS(=O)(=O)c1ccc(CCNc2nc(-c3cncnc3)nc3cccc(-c4ccccc4)c23)cc1", "Potassium voltage-gated channel subfamily A member 5 (Homo sapiens, UniProt P22460)", "low group"],
  ["c1ccc(CNc2nc(-c3cncnc3)nc3cccc(-c4cccc(N5CCOCC5)c4)c23)nc1", "Potassium voltage-gated channel subfamily A member 5 (Homo sapiens, UniProt P22460)", "low group"],
  ["N#Cc1ncc(-c2nc(NCc3ccccn3)c3c(-c4ccccc4)cccc3n2)cn1", "Potassium voltage-gated channel subfamily A member 5 (Homo sapiens, UniProt P22460)", "middle group"],
  ["NS(=O)(=O)c1ccc(CCNc2nc(Cl)nc3cccc(-c4ccccc4)c23)cc1", "Potassium voltage-gated channel subfamily A member 5 (Homo sapiens, UniProt P22460)", "middle group"],
  ["NS(=O)(=O)c1cccc(-c2nc(NCc3ccccn3)c3c(-c4ccccc4)cccc3n2)n1", "Potassium voltage-gated channel subfamily A member 5 (Homo sapiens, UniProt P22460)", "middle group"]
]}

Note: place this molecule into its band. Item: `O=C(NCC(F)(F)F)c1ccc(-c2cccc3nc(-c4cncnc4)nc(NCc4ccccn4)c23)cc1`
low group

Which category fits this record: `NS(=O)(=O)Nc1cncc(-c2nc(NCc3ccccn3)c3c(-c4ccccc4)cccc3n2)c1`
high group

# bin lookup: classify `CS(=O)(=O)Nc1cncc(-c2nc(NCc3ccccn3)c3c(-c4ccccc4)cccc3n2)c1` by its inhibition
middle group

----------
# measurementDescription: Cmax in rat at 2 mg/kg, iv or 5 mg/kg, po
# Type: ADME, organism-based
# protocolConditions: in vivo
resultType: Cmax (µM)
A number alone suffices; assume µM.

I have this compound here, `NS(=O)(=O)c1cncc(-c2nc(NCc3ccccn3)c3c(-c4ccccc4)cccc3n2)c1` , and I need its recorded Cmax.
7.9

----------
# measurementDescription: Cmax in mouse at 2 mg/kg, iv or 5 mg/kg, po
# Type: ADME, organism-based
# protocolConditions: in vivo
resultType: Cmax (µM)
Report as a plain number; the unit µM is understood.

Quick one: Cmax of NS(=O)(=O)c1cncc(-c2nc(NCc3ccccn3)c3c(-c4ccccc4)cccc3n2)c1 [BMS-919373] ?
4

----------
# measurementDescription: Inhibition of calcium channel (unknown origin)
# Set-up: species or system Homo sapiens
resultType: IC50

So what's the measured IC50 for this one? NS(=O)(=O)c1cncc(-c2nc(NCc3ccccn3)c3c(-c4ccccc4)cccc3n2)c1 [BMS-919373]
> 10 µM

----------
# testedTarget: Potassium voltage-gated channel subfamily A member 5 (Homo sapiens)
# measurementDescription: Inhibition of recombinant human Kv1.5 expressed in mouse L929 cells by patch clamp assay
Documented IC50 across a set of compounds
A number alone suffices; assume nM.

{"columns": ["structureString", "testedTarget", "recordedResult"],
 "data": [
  ["NC(=O)c1ccc(-c2nc(NCc3ccccn3)c3c(-c4ccccc4)cccc3n2)cn1", "Potassium voltage-gated channel subfamily A member 5 (Homo sapiens)", 100],
  ["CN(C)c1ccc(-c2cccc3nc(-c4cncnc4)nc(NCc4ccccn4)c23)cc1", "Potassium voltage-gated channel subfamily A member 5 (Homo sapiens)", 330],
  ["O=S(=O)(c1cccc(Nc2nc(Cl)nc3cccc(-c4ccccc4)c23)c1)N1CCOCC1", "Potassium voltage-gated channel subfamily A member 5 (Homo sapiens)", 210],
  ["CC(=O)Nc1cncc(-c2nc(NCc3ccccn3)c3c(-c4ccccc4)cccc3n2)c1", "Potassium voltage-gated channel subfamily A member 5 (Homo sapiens)", 100]
]}

Moving on to the next compound.
Please report the recorded IC50 for `O=S(=O)(c1cccc(Nc2nc(-c3cncnc3)nc3cccc(-c4ccccc4)c23)c1)N1CCOCC1` .
80

----------
# measurementDescription: Oral bioavailability in mouse at 5 mg/kg
# Assay type: ADME, organism-based
# protocolConditions: in vivo
resultType: bioavailability (%)
Numbers only here, please. The scale is %.

Given `NS(=O)(=O)c1cncc(-c2nc(NCc3ccccn3)c3c(-c4ccccc4)cccc3n2)c1` , state its recorded bioavailability.
100

----------
# Test system: Plasma
# measurementDescription: Plasma concentration in pacing-induced mongrel dog heart failure model at 0.3 mg/kg, po
# Type: ADME, organism-based, Canis lupus familiaris
# protocolConditions: in vivo
resultType: concentration (nM)
Your answer is read as nM, so omit the unit and give the number.

// concentration lookup, key: `NS(=O)(=O)c1cncc(-c2nc(NCc3ccccn3)c3c(-c4ccccc4)cccc3n2)c1`
1840

----------
# measurementDescription: Ratio of drug level in Sprague-Dawley rat brain to plasma at 3 mg/kg, iv administered as 10 mins infusion by LC-MS/MS analysis
# Type: ADME, organism-based
# protocolConditions: brain and plasma, read-out: BPR
Label key: true means Kp at 10 min under 0.3; false means Kp at 10 min of 0.3 or more.

Field: example entries. Status: answers known.
{"columns": ["compound", "class"],
 "data": [
  ["Nc1ncc(-c2nc(NCc3ccccn3)c3c(-c4ccccc4)cccc3n2)cn1", "false"],
  ["NC(=O)c1ccc(-c2cccc3nc(-c4cncnc4)nc(NCc4ccccn4)c23)cc1", "true"],
  ["CC(=O)Nc1cncc(-c2nc(NCc3ccccn3)c3c(-c4ccccc4)cccc3n2)c1", "true"],
  ["CS(=O)(=O)Nc1cncc(-c2nc(NCc3ccccn3)c3c(-c4ccccc4)cccc3n2)c1", "true"],
  ["NS(=O)(=O)Nc1cncc(-c2nc(NCc3ccccn3)c3c(-c4ccccc4)cccc3n2)c1", "true"],
  ["O=c1ccc(-c2nc(NCc3ccccn3)c3c(-c4ccccc4)cccc3n2)c[nH]1", "false"],
  ["O=S(=O)(c1cccc(Nc2nc(-c3cncnc3)nc3cccc(-c4ccccc4)c23)c1)N1CCOCC1", "false"],
  ["N#Cc1ncc(-c2nc(NCc3ccccn3)c3c(-c4ccccc4)cccc3n2)cn1", "false"],
  ["NC(=O)c1ccc(-c2nc(NCc3ccccn3)c3c(-c4ccccc4)cccc3n2)cn1", "false"],
  ["c1ccc(-c2cccc3nc(-c4cncnc4)nc(NCc4ccccn4)c23)cc1", "false"]
]}

Please look at the following compound next.
Please check: Kp at 10 min for `CC(=O)Nc1ccc(-c2nc(NCc3ccccn3)c3c(-c4ccccc4)cccc3n2)cn1` , strictly under 0.3 or not?
false

----------
# measurementDescription: Cmax in cynomolgus monkey at 1 mg/kg, iv or 1 mg/kg, po
# Type: ADME, organism-based, Macaca fascicularis
# protocolConditions: in vivo
resultType: Cmax (nM)
Give a bare numeral; the unit nM is implied.

Would you mind telling me what Cmax value was observed for `NS(=O)(=O)c1cncc(-c2nc(NCc3ccccn3)c3c(-c4ccccc4)cccc3n2)c1` ?
900

----------
# measurementDescription: AUC in cynomolgus monkey at 1 mg/kg, iv or 1 mg/kg, po
# Type: ADME, organism-based, Macaca fascicularis
# protocolConditions: in vivo
resultType: AUC (µM·h)
Respond numerically; units are µM·h and should not be typed.

Need AUC, item NS(=O)(=O)c1cncc(-c2nc(NCc3ccccn3)c3c(-c4ccccc4)cccc3n2)c1 [BMS-919373]
11

----------
# measurementDescription: Protein binding in human plasma
# Format: ADME, cell-free
# protocolConditions: read-out: PPB
resultType: fraction unbound

Example cases with answers are listed next.
{"columns": ["structureString", "resultType", "recordedResult"],
 "data": [
  ["NS(=O)(=O)c1ccc(-c2nc(NCc3ccccn3)c3c(-c4ccccc4)cccc3n2)cn1", "fraction unbound", "< 0.005"],
  ["CS(=O)(=O)Nc1cncc(-c2nc(NCc3ccccn3)c3c(-c4ccccc4)cccc3n2)c1", "fraction unbound", "< 0.005"],
  ["NC(=O)c1cncc(-c2nc(NCc3ccccn3)c3c(-c4ccccc4)cccc3n2)c1", "fraction unbound", "< 0.005"],
  ["Nc1ncc(-c2nc(NCc3ccccn3)c3c(-c4ccccc4)cccc3n2)cn1", "fraction unbound", "< 0.005"],
  ["NC(=O)Nc1cncc(-c2nc(NCc3ccccn3)c3c(-c4ccccc4)cccc3n2)c1", "fraction unbound", "< 0.005"]
]}

Given the molecule `O=C(NCC(F)(F)F)c1ccc(-c2cccc3nc(-c4cncnc4)nc(NCc4ccccn4)c23)cc1` , what is its reported fraction unbound?
< 0.005

Request the reported fraction unbound associated with `NC(=O)c1ccc(-c2cccc3nc(-c4cncnc4)nc(NCc4ccccn4)c23)cc1`
< 0.01

Look at this molecule and give its reported fraction unbound. `CC(=O)Nc1cncc(-c2nc(NCc3ccccn3)c3c(-c4ccccc4)cccc3n2)c1`
< 0.005

Which fraction unbound is reported for this molecule? `CC(=O)Nc1ccc(-c2nc(NCc3ccccn3)c3c(-c4ccccc4)cccc3n2)cn1`
< 0.005

Item under review: `NC(=O)Nc1ccc(-c2nc(NCc3ccccn3)c3c(-c4ccccc4)cccc3n2)cn1` . Reported fraction unbound?
< 0.005

For the molecule shown here, `NS(=O)(=O)c1cncc(-c2nc(NCc3ccccn3)c3c(-c4ccccc4)cccc3n2)c1` , give the reported fraction unbound.
< 0.01

Could you tell me which fraction unbound is on file for `O=S(=O)(c1cccc(Nc2nc(-c3cncnc3)nc3cccc(-c4ccccc4)c23)c1)N1CCOCC1` ?
< 0.005

Record request: fraction unbound value, item `NS(=O)(=O)Nc1cncc(-c2nc(NCc3ccccn3)c3c(-c4ccccc4)cccc3n2)c1`
< 0.005

Which fraction unbound reading was recorded for the molecule `NC(=O)c1ccc(-c2nc(NCc3ccccn3)c3c(-c4ccccc4)cccc3n2)cn1` ?
< 0.01
